Tested on: Botrytis cinerea (B05.10)
Assay: Resazurin antifungal assay of 180 alpha-factor peptide variants towards Botrytis (Example 2)
Format: cell-based
Details: % inhibition of fungal growth, Botrytis conidia, peptide 20 μM, resazurin
Experimental: The antifungal activity of 180 alpha-factor peptide variants towards Botrytis was tested. Experimental design: […] Fungal conidia were harvested by scraping a Botrytis plate flooded with 1 ml water with 0.1% Tween 80 solution. […] The conidia concentration of the resulting solution was counted using a hemocytometer. […] Peptides were tested for activity against Botrytis, using the resazurin assay. […] Fluorescence was measured at 570/620 nm after 4 h of incubation with resazurin. […]
Peptide text beside a SMILES is read from it.
Below: a set of entries, each annotated with reported Inhibition at 20 μM.

CC[C@H](C)[C@H](NC(=O)[C@H](CCCCN)NC(=O)[C@H](CC(C)C)NC(=O)[C@H](CCC(N)=O)NC(=O)[C@H](CC(C)C)NC(=O)[C@@H](NC(=O)[C@H](CCCCN)NC(=O)[C@@H](N)Cc1c[nH]c2ccccc12)[C@@H](C)O)C(=O)NCC(=O)N[C@@H](C)C(=O)N1CCC[C@H]1C(=O)N[C@@H](CCSC)C(=O)N[C@@H](Cc1ccc(O)cc1)C(=O)O [compound 60] (H-WKTLQLKIGAPMY-OH; N-terminus and C-terminus assumed) : <90%
CSCC[C@H](NC(=O)[C@H](CCCCN)NC(=O)[C@H](Cc1ccccc1)NC(=O)[C@H](CCC(N)=O)NC(=O)[C@@H](NC(=O)[C@H](CC(C)C)NC(=O)[C@H](Cc1c[nH]cn1)NC(=O)[C@@H](N)CCCCN)C(C)C)C(=O)NCC(=O)N[C@@H](CCC(N)=O)C(=O)N1CCC[C@H]1C(=O)N[C@@H](CCSC)C(=O)N[C@@H](Cc1ccc(O)cc1)C(=O)O [compound 22] (H-KHLVQFKMGQPMY-OH; N-terminus and C-terminus assumed) : <90%
CSCC[C@H](NC(=O)[C@@H]1CCCN1C(=O)[C@H](CCC(N)=O)NC(=O)CNC(=O)[C@@H]1CCCN1C(=O)[C@H](CCCCN)NC(=O)[C@H](Cc1ccccc1)NC(=O)[C@@H](NC(=O)[C@H](CC(C)C)NC(=O)[C@H](CC(C)C)NC(=O)[C@H](Cc1c[nH]cn1)NC(=O)[C@@H](N)CCCCN)[C@@H](C)O)C(=O)N[C@@H](Cc1ccc(O)cc1)C(=O)O [compound 95] (H-KHLLTFKPGQPMY-OH; N-terminus and C-terminus assumed) : <90%
CSCC[C@H](NC(=O)CNC(=O)[C@H](CO)NC(=O)CNC(=O)[C@@H]1CCCN1C(=O)[C@H](CCCCN)NC(=O)[C@H](Cc1ccccc1)NC(=O)[C@H](CCC(N)=O)NC(=O)[C@H](CC(C)C)NC(=O)[C@H](Cc1c[nH]c2ccccc12)NC(=O)[C@H](Cc1c[nH]cn1)NC(=O)[C@@H](N)CCCCN)C(=O)N[C@@H](Cc1ccc(O)cc1)C(=O)O [compound 64] (H-KHWLQFKPGSGMY-OH; N-terminus and C-terminus assumed) : 98.09%
CC[C@H](C)[C@H](NC(=O)[C@H](C)NC(=O)[C@H](CC(C)C)NC(=O)[C@H](Cc1c[nH]c2ccccc12)NC(=O)[C@H](Cc1c[nH]cn1)NC(=O)[C@@H](N)Cc1c[nH]c2ccccc12)C(=O)N[C@@H](Cc1ccccc1)C(=O)N[C@@H](CCCNC(=N)N)C(=O)NCC(=O)N[C@@H](CCC(N)=O)C(=O)N1CCC[C@H]1C(=O)N[C@@H](CCSC)C(=O)N[C@@H](Cc1ccc(O)cc1)C(=O)O [compound 57] (H-WHWLAIFRGQPMY-OH; N-terminus and C-terminus assumed) : <90%
CC[C@H](C)[C@H](NC(=O)[C@H](Cc1c[nH]c2ccccc12)NC(=O)[C@H](Cc1c[nH]cn1)NC(=O)[C@@H](N)CCCCN)C(=O)N[C@@H](CCCNC(=N)N)C(=O)N[C@@H](CC(C)C)C(=O)N[C@@H](Cc1c[nH]c2ccccc12)C(=O)N1CCC[C@H]1C(=O)NCC(=O)N[C@@H](CCC(N)=O)C(=O)N1CCC[C@H]1C(=O)N[C@@H](CCSC)C(=O)N[C@@H](Cc1ccc(O)cc1)C(=O)O [compound 75] (H-KHWIRLWPGQPMY-OH; N-terminus and C-terminus assumed) : 92.02%

Qu. // query Inhibition at 20 μM value for entry CC[C@H](C)[C@H](NC(=O)[C@H](Cc1c[nH]c2ccccc12)NC(=O)[C@H](Cc1c[nH]cn1)NC(=O)[C@@H](N)CCCCN)C(=O)N[C@H](C(=O)N[C@@H](CC(C)C)C(=O)N[C@@H](CCCCN)C(=O)N[C@@H](CO)C(=O)NCC(=O)N[C@@H](CCSC)C(=O)N1CCC[C@H]1C(=O)N[C@@H](CCSC)C(=O)N[C@@H](Cc1ccc(O)cc1)C(=O)O)[C@@H](C)O [compound 59] (H-KHWITLKSGMPMY-OH; N-terminus and C-terminus assumed)
Ans. 90.97%

Qu. Quick check: Inhibition at 20 μM of CC[C@H](C)[C@H](NC(=O)[C@H](CCCCN)NC(=O)[C@H](CC(C)C)NC(=O)[C@@H](NC(=O)[C@H](Cc1c[nH]cn1)NC(=O)[C@@H](N)Cc1c[nH]c2ccccc12)[C@@H](C)O)C(=O)N[C@@H](CCCCN)C(=O)N[C@@H](CCCCN)C(=O)NCC(=O)N[C@@H](CCC(=O)O)C(=O)N1CCC[C@H]1C(=O)N[C@@H](CCSC)C(=O)N[C@@H](Cc1ccc(O)cc1)C(=O)O [compound 15] (H-WHTLKIKKGEPMY-OH; N-terminus and C-terminus assumed) ?
Ans. <90%

Qu. Please give the measured Inhibition at 20 μM for this compound: CC[C@H](C)[C@H](NC(=O)[C@H](Cc1c[nH]c2ccccc12)NC(=O)[C@H](Cc1c[nH]cn1)NC(=O)[C@@H]1CCCN1)C(=O)N[C@@H](CCCCN)C(=O)N[C@@H](CC(C)C)C(=O)N[C@@H](Cc1c[nH]cn1)C(=O)N[C@H](C(=O)NCC(=O)N[C@@H](CCC(N)=O)C(=O)N1CCC[C@H]1C(=O)N[C@@H](CCSC)C(=O)N[C@@H](Cc1ccc(O)cc1)C(=O)O)[C@@H](C)O [compound 77] (H-PHWIKLHTGQPMY-OH; N-terminus and C-terminus assumed)
Ans. <90%
